Origin of the recorded values: paper PMC4826192

# system: FGFR1 (Homo sapiens)
# Sequence (P11362 22-822): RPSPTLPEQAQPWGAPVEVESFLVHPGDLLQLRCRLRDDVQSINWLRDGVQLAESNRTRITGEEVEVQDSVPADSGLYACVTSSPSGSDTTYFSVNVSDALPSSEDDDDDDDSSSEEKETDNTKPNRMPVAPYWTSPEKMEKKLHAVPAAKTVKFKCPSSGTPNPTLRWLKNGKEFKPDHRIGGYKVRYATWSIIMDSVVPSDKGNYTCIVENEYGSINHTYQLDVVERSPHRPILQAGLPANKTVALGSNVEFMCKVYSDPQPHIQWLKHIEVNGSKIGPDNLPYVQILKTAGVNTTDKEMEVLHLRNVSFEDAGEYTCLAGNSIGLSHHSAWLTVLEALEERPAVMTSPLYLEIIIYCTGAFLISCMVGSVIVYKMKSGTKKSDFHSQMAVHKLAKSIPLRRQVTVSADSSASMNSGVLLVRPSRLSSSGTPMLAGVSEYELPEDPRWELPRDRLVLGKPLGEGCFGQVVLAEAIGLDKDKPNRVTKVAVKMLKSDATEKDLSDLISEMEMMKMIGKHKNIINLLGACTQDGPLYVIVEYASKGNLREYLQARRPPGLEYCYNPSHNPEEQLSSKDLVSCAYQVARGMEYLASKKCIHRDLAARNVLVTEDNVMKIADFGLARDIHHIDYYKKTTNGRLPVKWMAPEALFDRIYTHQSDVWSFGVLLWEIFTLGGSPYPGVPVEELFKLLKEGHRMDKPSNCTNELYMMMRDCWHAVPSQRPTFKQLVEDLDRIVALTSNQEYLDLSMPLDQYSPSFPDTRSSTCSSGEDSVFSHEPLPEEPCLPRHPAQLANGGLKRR
measurement label: IC50

Prompt: // lookup IC50 | system=FGFR1 (Homo sapiens) | key= COCCNCc1ccc(-c2cc3nccc(Oc4ccc(NC(=O)C5(C(=O)Nc6ccc(F)cc6)CC5)cc4F)c3s2)nc1
Completion: > 5 µM

###

# system: VEGFR1 (FLT1) (Homo sapiens)
# Sequence (P17948 27-1338): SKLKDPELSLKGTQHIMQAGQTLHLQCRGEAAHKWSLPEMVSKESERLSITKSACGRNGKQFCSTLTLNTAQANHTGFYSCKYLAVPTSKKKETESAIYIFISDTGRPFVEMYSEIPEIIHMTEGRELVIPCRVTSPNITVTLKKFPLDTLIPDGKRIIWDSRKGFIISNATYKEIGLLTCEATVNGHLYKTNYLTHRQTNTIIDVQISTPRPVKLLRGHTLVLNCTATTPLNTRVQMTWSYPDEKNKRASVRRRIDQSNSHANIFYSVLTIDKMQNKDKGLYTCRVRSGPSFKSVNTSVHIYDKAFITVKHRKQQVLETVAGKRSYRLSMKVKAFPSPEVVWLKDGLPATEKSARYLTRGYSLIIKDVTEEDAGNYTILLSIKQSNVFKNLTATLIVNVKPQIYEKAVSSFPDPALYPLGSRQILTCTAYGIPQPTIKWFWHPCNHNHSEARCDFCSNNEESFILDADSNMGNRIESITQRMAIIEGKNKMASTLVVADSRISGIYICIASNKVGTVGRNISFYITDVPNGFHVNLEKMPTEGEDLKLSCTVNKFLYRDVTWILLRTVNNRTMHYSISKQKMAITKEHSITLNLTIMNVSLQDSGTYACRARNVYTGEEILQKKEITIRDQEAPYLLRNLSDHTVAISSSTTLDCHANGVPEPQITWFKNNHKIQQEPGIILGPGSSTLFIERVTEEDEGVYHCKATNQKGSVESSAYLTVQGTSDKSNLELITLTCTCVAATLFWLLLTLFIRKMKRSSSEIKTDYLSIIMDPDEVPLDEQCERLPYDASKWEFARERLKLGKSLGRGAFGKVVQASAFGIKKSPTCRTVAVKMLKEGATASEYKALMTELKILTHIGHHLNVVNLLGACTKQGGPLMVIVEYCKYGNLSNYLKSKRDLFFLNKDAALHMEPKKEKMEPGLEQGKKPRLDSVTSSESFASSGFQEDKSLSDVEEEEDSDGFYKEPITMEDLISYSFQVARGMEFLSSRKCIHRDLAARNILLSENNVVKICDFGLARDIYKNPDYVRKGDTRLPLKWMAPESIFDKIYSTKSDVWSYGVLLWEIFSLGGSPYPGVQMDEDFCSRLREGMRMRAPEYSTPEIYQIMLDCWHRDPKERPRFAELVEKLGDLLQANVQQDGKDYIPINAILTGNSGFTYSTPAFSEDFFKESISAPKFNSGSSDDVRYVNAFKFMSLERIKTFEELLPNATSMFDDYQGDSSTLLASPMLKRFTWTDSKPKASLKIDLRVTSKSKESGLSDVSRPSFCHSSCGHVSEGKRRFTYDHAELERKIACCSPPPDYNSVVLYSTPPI
# run description: In vitro kinase inhibition profile (biochemical)
# applied conditions: read-out: Biochemical (IC50 nmol/L)
measurement label: IC50 (nmol/L)
Return type: number; implicit unit nmol/L.

Prompt: Would you mind telling me what IC50 value was observed for COCCNCc1ccc(-c2cc3nccc(Oc4ccc(NC(=O)C5(C(=O)Nc6ccc(F)cc6)CC5)cc4F)c3s2)nc1 ?
Completion: 6
